Experiment: Inhibition of membrane fusion between HIV1 JR-FL Env-expressing COS7 cells and MOLT4/CCR5
pIC50: −log10 of the molar value.
Reported pIC50 values for the following molecules.
ASSAY ENDPOINT: pIC50

molecule="CCCCOCCOc1ccc(-c2ccc3c(c2)C=C(C(=O)Nc2ccc([S+]([O-])Cc4nncn4CCC)cc2)CCCN3CC(C)C)cc1 (stereo unspecified)" assay_endpoint=pIC50 measured_result=9.72
molecule="CCCCOCCOc1ccc(-c2ccc3c(c2)C=C(C(=O)Nc2ccc([S+]([O-])Cc4cncn4CCC)cc2)CCCCN3CC(C)C)cc1 (stereo unspecified)" assay_endpoint=pIC50 measured_result=9.32
molecule="CCCCOCCOc1ccc(-c2ccc3c(c2)C=C(C(=O)Nc2ccc([S+]([O-])Cc4nncn4CCC)cc2)CCCN3CCC)cc1 (stereo unspecified)" assay_endpoint=pIC50 measured_result=9.02
molecule="CCCCOCCOc1ccc(-c2ccc3c(c2)C=C(C(=O)Nc2ccc([S+]([O-])Cc4cncn4CCC)cc2)CCCN3CCC)cc1 (stereo unspecified)" assay_endpoint=pIC50 measured_result=9.62
molecule="CCCCOCCOc1ccc(-c2ccc3c(c2)C=C(C(=O)Nc2ccc([S+]([O-])Cc4cncn4CCC)cc2)CCN3CC(C)C)cc1 (stereo unspecified)" assay_endpoint=pIC50 measured_result=9.00
molecule="CCCCOCCOc1ccc(-c2ccc3c(c2)C=C(C(=O)Nc2ccc([S+]([O-])Cc4cncn4CCC)cc2)CCCN3Cc2cnn(C)c2)cc1 (stereo unspecified)" assay_endpoint=pIC50 measured_result=9.68
